# reported melting point; entries follow

COMPOUND | REPORTED_VALUE
COc1ccc(-c2nc(NCc3nc4ccccc4s3)nc(OC)c2C#N)cc1 [Compound 3c] | > 300 °C
COc1ccc(-c2nc(NCc3cc4ccccc4s3)nc(OC)c2C#N)cc1 [Compound 3d] | > 300 °C
COc1ccc(-c2nc(NS(=O)(=O)c3ccc(C(C)(C)C)cc3)nc(OC)c2C#N)cc1 [Compound 5c] | 276 to 278 °C
COc1ccc(-c2nc(NS(=O)(=O)c3ccccc3)nc(OC)c2C#N)cc1 [Compound 5a] | 241 to 243 °C
COc1ccc(-c2nc(NCc3nc4ccccc4o3)nc(OC)c2C#N)cc1 [Compound 3b] | > 300 °C

Item COc1ccc(-c2nc(NS(=O)(=O)c3ccc(C)cc3)nc(OC)c2C#N)cc1 [Compound 5b] has what recorded melting point?
283 to 285 °C

Thanks! And COc1ccc(-c2nc(NS(=O)(=O)c3ccc(C(F)(F)F)cc3)nc(OC)c2C#N)cc1 [Compound 5d] ?
291 to 293 °C
